# System: TO-3-N3 (biotin conjugate)
# TEST_NAME: pull-down binding Z-score (relative to library population); higher = stronger binding
# DETAILS: RNA library: Library-2
Each entry belongs to exactly one class, chosen by where its pull-down binding Z-score falls: lower band: < -0.5; central band: ≥ -0.5 and < 0.03; upper band: ≥ 0.03

- ITEM_SEQUENCE: "AACGGGGCGGGCCUGGGCGGGGUAA [G4_2A2_VEGF-Pu22-del]"
  CLASSIFICATION: "upper band"
- ITEM_SEQUENCE: "UAAACCACCCAUUAGUUUUCCAUUGUGUGCUAAUGGACAAGUUUUUGGUUUA [SHAPE_invivo_SARS-CoV-2_Motif_310]"
  CLASSIFICATION: "lower band"
- ITEM_SEQUENCE: "AGGCACAUAUGUGAACAUUGUACCA [hsa-mir-5707]"
  CLASSIFICATION: "central band"
- ITEM_SEQUENCE: "UUCUCUUUAUUUAUGAUGAA [hsa-mir-494]"
  CLASSIFICATION: "lower band"
- ITEM_SEQUENCE: "CAUUGGUGUAAAGCUGGAGACCCACUG [hsa-mir-324]"
  CLASSIFICATION: "upper band"
- ITEM_SEQUENCE: "GGUCUGCAGGACU [IAV_invivo_PA_3_Motif_27+IAV_invivo_PA_3_Motif_27]"
  CLASSIFICATION: "upper band"
- ITEM_SEQUENCE: "GCGCUGCCAGAAACUGGCUUCAGCGC [bulge-UUC]"
  CLASSIFICATION: "lower band"
- ITEM_SEQUENCE: "UGUAAAUAACUACAAUUCUCUUAACUCCGUAGCAGUUGC [hsa-mir-7844]"
  CLASSIFICATION: "central band"

Query block: Using the reported pull-down binding Z-score, which band applies to GGAGCUGGCUGCUGGCCUCAGUUCU [hsa-mir-5001] ?
Result block: central band

---

# System: TO-N3-2 (biotin conjugate)
# TEST_NAME: pull-down binding Z-score (relative to library population); higher = stronger binding
# DETAILS: RNA library: Library-2
ASSAY_ENDPOINT: pull-down binding Z-score

Consider the following illustrative entries.
- ITEM_SEQUENCE: "UCCAGGCAUCUGUGUCUG [hsa-mir-4669]"
  ASSAY_ENDPOINT: "pull-down binding Z-score"
  MEAS_VALUE: 0.591
- ITEM_SEQUENCE: "GAGGUAAGUAUGAUACUUACCUG [U1snRNP5ss-8]"
  ASSAY_ENDPOINT: "pull-down binding Z-score"
  MEAS_VALUE: -1.02
- ITEM_SEQUENCE: "CCCAGAUGAAGGCACAGCUGGAGUGGAGUCCGCUGUUCUGAGGGGAUUCCUCAUUCUGGG [IAV_invivo_PB2_1_Motif_33+IAV_invivo_PB2_1_Motif_33]"
  ASSAY_ENDPOINT: "pull-down binding Z-score"
  MEAS_VALUE: 1.54
- ITEM_SEQUENCE: "GUUAGUUGUGGACACAUACUAAC [hsa-mir-3912]"
  ASSAY_ENDPOINT: "pull-down binding Z-score"
  MEAS_VALUE: -1.25
- ITEM_SEQUENCE: "GGCAGUGGUUCUAAAAGCUGUC [hsa-mir-3618]"
  ASSAY_ENDPOINT: "pull-down binding Z-score"
  MEAS_VALUE: 0.117

Query block: Notebook: pull reported pull-down binding Z-score for TO-N3-2 (biotin conjugate), entry UUGUGAAACACAGGUGUUUUUUAACCUCAC [hsa-mir-6841]
Result block: 0.257

Query block: Notebook: pull reported pull-down binding Z-score for TO-N3-2 (biotin conjugate), entry CAGCUUGCUCUGCUUU [hsa-mir-4303]
Result block: 0.0746

Query block: Notebook: pull reported pull-down binding Z-score for TO-N3-2 (biotin conjugate), entry CCUAGAGUCCAUUCUUUACUCUAGG [hsa-mir-4779]
Result block: -1.28

Query block: Notebook: pull reported pull-down binding Z-score for TO-N3-2 (biotin conjugate), entry GGUCAGGUGGUGCCCUCCUUCCAUGGGUAGAGCCAGAGAUGGUGGGUUCUGGCU [hsa-mir-6131]
Result block: 2.25

Query block: Notebook: pull reported pull-down binding Z-score for TO-N3-2 (biotin conjugate), entry UUAUGUUUCUGAUCCGAAUAUAA [hsa-mir-208b]
Result block: -0.679

---

# System: TO-N3-2 (biotin conjugate)
# TEST_NAME: pull-down binding Z-score (relative to library population); higher = stronger binding
# DETAILS: RNA library: Library-2
ASSAY_ENDPOINT: pull-down binding Z-score
Please respond with just the number, no unit label.

Consider the following illustrative entries.
- ITEM_SEQUENCE: "UAGUCCUGUUGCACUACGACAGAUGUCUUGUGCUGCCGGUACUA [DMSMaPseq_invitro_SARS-CoV-2_Motif_226]"
  pull-down binding Z-score: -0.478
- ITEM_SEQUENCE: "CGGUACCCACUGCUGAGGGUGGGGACCA [hsa-mir-3691]"
  pull-down binding Z-score: 0.687

Query block: Given the entry UUUUCAGUUCCUGAGAUC [hsa-mir-4287] , report its measured pull-down binding Z-score.
Result block: -0.441

Query block: Given the entry GAGAGUGCUGUCUGAAUGCAAUGC [hsa-mir-500a] , report its measured pull-down binding Z-score.
Result block: 0.766

Query block: Given the entry AGGACGGUGCGCCUUGUUUCCC [hsa-mir-3132] , report its measured pull-down binding Z-score.
Result block: 0.529

Query block: Given the entry AUGAGUACGAACUUAUGUACUCAU , report its measured pull-down binding Z-score.
Result block: -1.18

Query block: Given the entry AACUUUAGCUUGUUUUGUGCUUGCUGCUGUU , report its measured pull-down binding Z-score.
Result block: -0.708

Query block: Given the entry GGUUCUGGGGUGUAGACGCUGCUGGCCAGCC [hsa-mir-4707] , report its measured pull-down binding Z-score.
Result block: 0.971

Query block: Given the entry GUAUACUGAGCUUAUGUAUGCAUCUGCAUAC [hsa-mir-5591] , report its measured pull-down binding Z-score.
Result block: 0.0714

Query block: Given the entry GUGUCGCCCCACGAGGGGGACUGU [hsa-mir-4322] , report its measured pull-down binding Z-score.
Result block: 0.483

Query block: Given the entry GGUCUAUAUGCC [SHAPE_invivo_SARS-CoV-2_Motif_218] , report its measured pull-down binding Z-score.
Result block: -0.475

Query block: Given the entry CCCAUAUAAUAUUAGGGG [hsa-mir-4483] , report its measured pull-down binding Z-score.
Result block: -0.667

Query block: Given the entry GACAAUGUCUUAUCUACUUUUAUUUCAGCAGCUCGGCAAGGGUUUGUUGAUUCAGAUGUAGAAACUAAAGAUGUUGUU , report its measured pull-down binding Z-score.
Result block: -0.776

---

# Test system: TO-3-N3-2 (biotin conjugate)
# TEST_NAME: pull-down binding Z-score (relative to library population); higher = stronger binding
# DETAILS: RNA library: Library-2
So basically: pull-down binding Z-score at -0.1 or higher? That is Met. Lower than -0.1? That is Not met.

- ITEM_SEQUENCE: "UUGGCCUUUAUUUUCAAUGGCAAG [hsa-mir-548b]"
  CLASSIFICATION: "Not met"

Query block: Could you please find out whether UCCUAAAGUGAAGUAUUUAUACUUUAUUAAAGGA [SHAPE_invitro_SARS-CoV-2_Motif_235] has pull-down binding Z-score that meets -0.1 or exceeds it?
Result block: Not met

---

# System: TO-3-N3 (biotin conjugate)
# TEST_NAME: pull-down binding Z-score (relative to library population); higher = stronger binding
# DETAILS: RNA library: Library-2
So basically: pull-down binding Z-score at 0.5 or higher? That is T. Lower than 0.5? That is F.

Query block: Could you please find out whether GGAAGGGAGCCCCAUUUACAGUGGUAACUUCCUUUCC [hsa-mir-5006] has pull-down binding Z-score that meets 0.5 or exceeds it?
Result block: T

Query block: Could you please find out whether UGCUUUGUUAGAAACAAAAAGCA [hsa-mir-4679-1] has pull-down binding Z-score that meets 0.5 or exceeds it?
Result block: T

Query block: Could you please find out whether CUGCGGCCCUGAUGUCUCUACUCCAG [hsa-mir-4691] has pull-down binding Z-score that meets 0.5 or exceeds it?
Result block: F

Query block: Could you please find out whether GAAGAGGGAGCAAUUGUUGGCGAAAUUUCACCAUUGCCUUCUCUUC [IAV_invivo_NS1_NEP_8_Motif_10+IAV_invivo_NS1_NEP_8_Motif_10] has pull-down binding Z-score that meets 0.5 or exceeds it?
Result block: F

Query block: Could you please find out whether UUUUUGUUUUUGAGACAGAGU [hsa-mir-4472-2] has pull-down binding Z-score that meets 0.5 or exceeds it?
Result block: F

---

# Test system: TO-3-N3-2 (biotin conjugate)
# TEST_NAME: pull-down binding Z-score (relative to library population); higher = stronger binding
# DETAILS: RNA library: Library-2
Measured pull-down binding Z-score, listed per entry.

Consider the following illustrative entries.
- ITEM_SEQUENCE: "GAACCCAGGGAGCCAGACUGCCUGGGUUC [hsa-mir-607]"
  TEST_TARGET: "TO-3-N3-2 (biotin conjugate)"
  pull-down binding Z-score: -0.182
- ITEM_SEQUENCE: "ACAGCAGAGUGCUGU [IAV_invivo_M1_M2_7_Motif_17+IAV_invivo_M1_M2_7_Motif_17]"
  TEST_TARGET: "TO-3-N3-2 (biotin conjugate)"
  pull-down binding Z-score: -0.794
- ITEM_SEQUENCE: "GCUGCUGGUGCUCAUCUCAGC [hsa-mir-6877]"
  TEST_TARGET: "TO-3-N3-2 (biotin conjugate)"
  pull-down binding Z-score: -0.0239
- ITEM_SEQUENCE: "GGAUAAGAAUCAGUCAC [hsa-mir-217]"
  TEST_TARGET: "TO-3-N3-2 (biotin conjugate)"
  pull-down binding Z-score: 0.259

Next item in the queue.
Query block: Given the entry UUUUGCUGUUACUUUUAAUGGCAAAA [hsa-mir-548az] , report its measured pull-down binding Z-score.
Result block: -0.34

Reference for the values: the supplement of paper PMC11865577
